Test system: S180 sarcoma
MEASUREMENT_CONTEXT: S180 sarcoma; Dosage 100 (mg/ml), ip × 10qd; first time
REPORTED_PROPERTY: Body weight of the animals, beginning, First time (g)
Express your answer in g, writing the number without its unit.

Q: Tell me the measured Body weight of the animals, beginning, First time of CCOC(=O)Nc1cc2c3ccccc3n(Cc3ccccc3)c2cn1 [Compound 55] , please.
Result: 19.4

Q: Check CCOC(=O)c1cc2c3ccccc3n(CC)c2cn1 [Compound 31, ethyl 9-ethyl-β-carboline-3-carboxylate] too.
Result: 20.0

Q: Check CCOC(=O)c1cc2c3ccccc3n(Cc3ccccc3)c2cn1 [Compound 33, ethyl 9-benzyl-β-carboline-3-carboxylate] too.
Result: 19.4

* * *

Exercise: for every item that follows, state its recorded Body weight of the animals, end, Second time.
Tested on: Lewis lung cancer
MEASUREMENT_CONTEXT: Lewis lung cancer; Dosage 100 (mg/ml), ip × 10qd; second time
Express your answer in g, writing the number without its unit.

Q: Tell me the measured Body weight of the animals, end, Second time of `CCOC(=O)Nc1cc2c3ccccc3n(Cc3ccccc3)c2cn1` , please.
Result: 23.9

Q: Check `CCCCn1c2ccccc2c2cc(C(=O)O)ncc21` too.
Result: 25.0

Q: Check CCOC(=O)c1cc2c3ccccc3n(Cc3ccccc3)c2cn1 [Compound 33, ethyl 9-benzyl-β-carboline-3-carboxylate] too.
Result: 24.5

Q: Check `c1ccc(Cn2c3ccccc3c3ccncc32)cc1` too.
Result: 24.7

* * *

Test system: Lewis lung cancer
MEASUREMENT_CONTEXT: Lewis lung cancer; Dosage 100 (mg/ml), ip × 10qd; first time
REPORTED_PROPERTY: Body weight of the animals, end, First time (g)
Express your answer in g, writing the number without its unit.

Q: Short answer please: Body weight of the animals, end, First time, Lewis lung cancer, entry CCOC(=O)c1cc2c3ccccc3n(CC)c2cn1 [Compound 31, ethyl 9-ethyl-β-carboline-3-carboxylate]
Result: 23.7

Q: Check OCc1cc2c3ccccc3n(Cc3ccccc3)c2cn1 [Compound 42, 9-benzyl-3-hydroxymethyl-β-carboline] too.
Result: 25.1

Q: Check `CCOC(=O)Nc1cc2c3ccccc3n(Cc3ccccc3)c2cn1` too.
Result: 23.5

Q: Check `c1ccc(Cn2c3ccccc3c3ccncc32)cc1` too.
Result: 24.2

* * *

Exercise: for every item that follows, state its recorded Weight of the tumor X ± SD, First time.
System: Lewis lung cancer
MEASUREMENT_CONTEXT: Lewis lung cancer; Dosage 100, ip × 10qd; first time
Express your answer in g, writing the number without its unit.

Q: Tell me the measured Weight of the tumor X ± SD, First time of O=C(O)c1cc2c3ccccc3n(CCCc3ccccc3)c2cn1 [Compound 48] , please.
Result: 1.58

Q: Check CCOC(=O)c1cc2c3ccccc3n(Cc3ccccc3)c2cn1 [Compound 33, ethyl 9-benzyl-β-carboline-3-carboxylate] too.
Result: 1.39

Q: Check OCc1cc2c3ccccc3n(Cc3ccccc3)c2cn1 [Compound 42, 9-benzyl-3-hydroxymethyl-β-carboline] too.
Result: 1.62

Q: Check CCOC(=O)c1cc2c3ccccc3n(CC)c2cn1 [Compound 31, ethyl 9-ethyl-β-carboline-3-carboxylate] too.
Result: 1.55

* * *

System: Lewis lung cancer;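 note: mice implanted subcutaneously in the axilla with Lewis lung tumor cells, treated starting the following day, killed roughly three weeks after implantation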
MEASUREMENT_CONTEXT: Lewis lung cancer; Dosage 50 (mg/ml), ip × 10qd; second time
Exercise: for every item that follows, state its recorded Body weight of the animals, end, Second time.
Express your answer in g, writing the number without its unit.

Q: Short answer please: Body weight of the animals, end, Second time, Lewis lung cancer, entry O=C(O)c1cc2c3ccccc3n(CCCc3ccccc3)c2cn1 [Compound 48]
Result: 25.0

Q: Check OCc1cc2c3ccccc3n(Cc3ccccc3)c2cn1 [Compound 42, 9-benzyl-3-hydroxymethyl-β-carboline] too.
Result: 24.7

Q: Check O=C(O)c1cc2c(cn1)[nH]c1ccccc12 [Compound 17, β-carboline-3-carboxylic acid] too.
Result: 25.4

Q: Check CCOC(=O)c1cc2c3ccccc3n(Cc3ccccc3)c2cn1 [Compound 33, ethyl 9-benzyl-β-carboline-3-carboxylate] too.
Result: 24.9

Q: Check CCOC(=O)Nc1cc2c3ccccc3n(Cc3ccccc3)c2cn1 [Compound 55] too.
Result: 24.5

Origin of values: patent US20090227619A1
